assayedTarget: human chemokine receptor CCR3 (Homo sapiens)
Construct: expressed in transfected cells; host or cells: K562 cell line (hCCR3-C1 cells), membrane preparation
assayProtocol: CCR3 receptor binding assay (SPA, 125I-eotaxin-1 displacement, hCCR3-C1 K562 cell membranes)
measurementContext: 1 μM test compound; human Eotaxin-1 at human CCR3-Rezeptor; read-out: CCR3 % inh @ 1 μM
measuredParameter: inhibition at 1 µM (%)
Give bare numbers, in %.

See these solved cases before continuing.
compound	measuredParameter	readingUnit	observedValue
Cc1cc(CN2CCC(N3C(=O)CC[C@@H]3C(=O)N3Cc4ccccc4C3)CC2)ccc1Cl	inhibition at 1 µM	%	60
Cc1cc(CN2CCC(N3C(=O)CC[C@@H]3C(=O)Nc3cc(-n4cccn4)ccn3)CC2)ccc1Cl	inhibition at 1 µM	%	95
Cc1cc(CN2CCC(N3C(=O)CC[C@H]3C(=O)NC3CCC(F)(F)CC3)CC2)ccc1Cl	inhibition at 1 µM	%	40
Cc1nccc(-c2cccc(NC(=O)[C@H]3CCC(=O)N3C3CC4CCC(C3)N4Cc3ccc(Cl)c(C)c3)c2)n1 (some centres unmarked)	inhibition at 1 µM	%	65
Cc1cc(CN2CCC(N3C(=O)OC[C@H]3C(=O)Nc3ccc4ncsc4c3)CC2)ccc1Cl	inhibition at 1 µM	%	94

Could I get inhibition at 1 µM for every one of these entries?
1. CCS(=O)(=O)N(CC(=O)N(C)C)c1cccc(NC(=O)[C@H]2CCC(=O)N2C2CC3CCC(C2)N3Cc2ccc(Cl)c(C)c2)c1 (some centres unmarked)
2. Cc1cc(CN2CCC(N3C(=O)CC[C@H]3C(=O)N3CCc4cc(F)ccc4C3)CC2)ccc1Cl
3. Cc1cc(C(=O)N(C)C)cc(NC(=O)[C@H]2CCC(=O)N2C2CCN(Cc3ccc(Cl)c(Cl)c3)CC2)n1

Reply:
[91, 63, 80]

Could I get inhibition at 1 µM for every one of these entries?
1. CCN(CCO)C(=O)c1cccc(NC(=O)[C@H]2CCC(=O)N2C2CCN(Cc3ccc(Cl)c(C)c3)CC2)c1
2. CCC(C)NC(=O)c1cccc(NC(=O)[C@H]2CCC(=O)N2C2CCN(Cc3ccc(Cl)c(C)c3)CC2)c1 (some centres unmarked)
3. Cc1cc(CN2CCC(N3C(=O)CC[C@@H]3C(=O)Nc3cccc(-c4c[nH]cn4)c3)CC2)ccc1Cl
4. CCC(C)N(C)C(=O)c1cccc(NC(=O)[C@H]2CCC(=O)N2C2CCN(Cc3ccc(Cl)c(C)c3)CC2)c1 (some centres unmarked)
5. Cc1cc(CN2CCC(N3C(=O)CC[C@@H]3C(=O)Nc3cccc(C(=O)NCC(C)(C)C)c3)CC2)ccc1Cl
6. Cc1cc(CN2C3CCC2CC(N2C(=O)CC[C@@H]2C(=O)Nc2cccc(-c4nnnn4C)c2)C3)ccc1Cl (some centres unmarked)
7. CNC(=O)c1cc(NC(=O)[C@H]2CCC(=O)N2C2CCN(Cc3ccc(Cl)c(C)c3)CC2)cc(C(F)(F)F)c1

Reply:
1. 98
2. 99
3. 96
4. 101
5. 99
6. 96
7. 98

Could I get inhibition at 1 µM for every one of these entries?
1. CNC(=O)c1cccc(NC(=O)[C@H]2CCC(=O)N2C2CCN(Cc3ccc(Br)cc3)CC2)c1
2. CNC(=O)c1sc(NC(=O)[C@H]2CCC(=O)N2C2CCN(Cc3ccc(Cl)c(C)c3)CC2)nc1C
3. Cc1cc(CN2CCC(N3C(=O)CC[C@@H]3C(=O)Nc3cccc(-c4ccn(C)n4)c3)CC2)ccc1Cl
4. Cc1cc(CN2CCC(N3C(=O)CC[C@@H]3C(=O)Nc3cccnc3)CC2)ccc1Cl
5. CNc1nc(-c2cccc(NC(=O)[C@@H]3CN(C)C(=O)N3C3CCN(Cc4ccc(Cl)c(C)c4)CC3)c2)no1

Reply:
[86, 100, 95, 80, 87]

###

assayedTarget: human chemokine receptor CCR3 (Homo sapiens)
Construct: expressed in transfected cells; host or cells: K562 cell line (hCCR3-C1 cells), membrane preparation
Sequence (P51677 1-355): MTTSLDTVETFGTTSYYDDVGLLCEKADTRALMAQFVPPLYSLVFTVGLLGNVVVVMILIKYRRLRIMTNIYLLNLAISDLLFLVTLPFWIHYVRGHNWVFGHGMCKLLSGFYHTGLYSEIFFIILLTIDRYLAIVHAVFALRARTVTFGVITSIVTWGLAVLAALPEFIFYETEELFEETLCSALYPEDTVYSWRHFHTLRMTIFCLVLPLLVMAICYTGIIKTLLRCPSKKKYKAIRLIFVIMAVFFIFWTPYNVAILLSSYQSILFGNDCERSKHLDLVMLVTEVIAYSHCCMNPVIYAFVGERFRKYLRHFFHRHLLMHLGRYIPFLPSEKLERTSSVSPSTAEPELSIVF
assayProtocol: CCR3 receptor binding assay (SPA, 125I-eotaxin-1 displacement, hCCR3-C1 K562 cell membranes)
measurementContext: 1 μM test compound; human Eotaxin-1 at human CCR3-Rezeptor; read-out: CCR3 % inh @ 1 μM
Answer each item with its documented inhibition at 1 µM.
Quick note: number first, unit second.

See these solved cases before continuing.
compound	inhibition at 1 µM
Cc1cc(C(=O)N(C)C)cc(NC(=O)[C@H]2CCC(=O)N2C2CCN(Cc3ccc(Cl)c(C)c3)CC2)n1	101%
CCOC(=O)c1cc(NC(=O)[C@H]2CCC(=O)N2C2CCN(Cc3ccc(Cl)c(C)c3)CC2)no1	95%
CNC(=O)c1cc(NC(=O)[C@H]2CCC(=O)N2C2CCN(Cc3ccc(Cl)c(C)c3)CC2)cc(C(C)(C)C)c1	95%
Cc1cc(CN2CCC(N3C(=O)CC[C@@H]3C(=O)Nc3cccc(C(=O)N4CCCCC4CO)c3)CC2)ccc1Cl (stereo partly drawn)	99%
Cc1cc(CN2CCC(N3C(=O)CC[C@@H]3C(=O)Nc3cc(-c4nc[nH]n4)ccn3)CC2)ccc1Cl	93%

Could I get inhibition at 1 µM for every one of these entries?
1. Cc1cc(CN2CCC(N3C(=O)CC[C@@H]3C(=O)Nc3cccc(C(=O)NCC(F)F)c3)CC2)ccc1Cl
2. Cc1cc(CN2CCC(N3C(=O)CC[C@@H]3C(=O)Nc3cccc(C(=O)NC(C)(C)C)c3)CC2)ccc1Cl
3. CCOC(=O)c1cc(NC(=O)[C@H]2CCC(=O)N2C2CCN(Cc3ccc(Cl)c(C)c3)CC2)nn1C
4. Cc1cc(NC(=O)[C@H]2CCC(=O)N2C2CCN(Cc3ccc(Cl)c(C)c3)CC2)cc(C(=O)N(C)C)c1

Reply:
99%
100%
94%
98%

Could I get inhibition at 1 µM for every one of these entries?
1. Cc1cc(CN2CCC(N3C(=O)CC[C@@H]3C(=O)Nc3cccc(C(=O)N(C)Cc4ccco4)c3)CC2)ccc1Cl
2. CCn1cc(NC(=O)[C@H]2CCC(=O)N2C2CCN(Cc3ccc(Cl)c(C)c3)CC2)cc1C(=O)N1CCCC1
3. COc1ccc(NC(=O)[C@H]2CCC(=O)N2C2CCN(Cc3ccc(Cl)c(C)c3)CC2)cc1C(=O)N(C)CCO
4. CNC(=O)c1cccc(NC(=O)[C@@H]2COC(=O)N2C2CCN(Cc3ccc(Cl)c(C)c3)CC2)c1
5. Cc1cc(CN2C3CCC2CC(N2C(=O)CC[C@@H]2C(=O)Nc2cccc(N(CC(=O)N(C)C)S(C)(=O)=O)c2)C3)ccc1Cl (stereo partly drawn)
6. Cc1cccc(NC(=O)[C@@H]2CCC(=O)N2C2CCN(Cc3ccc(Cl)c(C)c3)CC2)n1
7. CCOC(=O)c1sc(NC(=O)[C@H]2CCC(=O)N2C2CCN(Cc3ccc(Cl)c(C)c3)CC2)nc1C

Reply:
99%
96%
86%
87%
97%
75%
100%

Could I get inhibition at 1 µM for every one of these entries?
1. Cc1cc(C)n(-c2ccnc(NC(=O)[C@H]3CCC(=O)N3C3CCN(Cc4ccc(Cl)c(C)c4)CC3)c2)n1
2. Cc1cc(CN2C3CCC2CC(N2C(=O)CC[C@@H]2C(=O)Nc2cccc(C(N)=O)c2)C3)ccc1Cl (stereo partly drawn)
3. Cc1cc(-c2noc(C)n2)cc(NC(=O)[C@H]2CCC(=O)N2C2CCN(Cc3ccc(Cl)c(C)c3)CC2)n1
4. Cc1cc(CN2CCC(N3C(=O)CC[C@@H]3C(=O)Nc3cccc(-c4nnnn4C)c3)CC2)ccc1Cl
5. Cc1cc(CN2CCC(N3C(=O)CC[C@H]3C(=O)Nc3cccc(Cc4ccncc4)c3)CC2)ccc1Cl

Reply:
1: 100%; 2: 89%; 3: 99%; 4: 101%; 5: 81%

###

Answer each item with its documented log10 Ki.
assayedTarget: human chemokine receptor CCR3 (Homo sapiens)
Sequence (P51677 1-355): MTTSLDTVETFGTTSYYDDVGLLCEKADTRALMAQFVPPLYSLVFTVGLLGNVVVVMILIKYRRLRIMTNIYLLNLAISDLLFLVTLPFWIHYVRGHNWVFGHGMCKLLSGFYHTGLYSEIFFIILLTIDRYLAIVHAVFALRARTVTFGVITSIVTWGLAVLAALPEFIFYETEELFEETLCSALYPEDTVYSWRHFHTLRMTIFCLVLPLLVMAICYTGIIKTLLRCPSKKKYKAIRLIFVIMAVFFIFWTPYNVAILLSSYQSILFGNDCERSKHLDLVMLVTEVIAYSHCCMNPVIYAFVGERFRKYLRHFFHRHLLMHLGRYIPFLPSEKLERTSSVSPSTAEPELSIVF
Use the decimal logarithm of Ki (nM).

compound	log10 Ki
CCNS(=O)(=O)c1cccc(NC(=O)[C@H]2CCC(=O)N2C2CCN(Cc3ccc(Cl)c(C)c3)CC2)c1 [Example 4]	0.70
CNC(=O)c1cc(C)cc(NC(=O)[C@H]2CCC(=O)N2C2CCN(Cc3ccc(Cl)c(C)c3)CC2)c1 [Example 142]	1.23
Cc1cc(CN2CCC(N3C(=O)CC[C@@H]3C(=O)N(C)c3ccccn3)CC2)ccc1Cl [Example 103]	3.15
CCC(C)NC(=O)c1cccc(NC(=O)[C@H]2CCC(=O)N2C2CCN(Cc3ccc(Cl)c(C)c3)CC2)c1 (stereo partly shown) [Example 143]	0.85
Cc1cc(CN2CCC(N3C(=O)CC[C@@H]3C(=O)Nc3cc(C(=O)N(C)C)cc(-c4nnnn4C)c3)CC2)ccc1Cl [Example 185]	0.00
CCCCS(=O)(=O)NC1CCCN(C(=O)[C@@H]2CCC(=O)N2C2CCN(Cc3ccc(Cl)c(C)c3)CC2)C1 (stereo partly shown) [Example 49]	3.07
CCNC(=O)c1cc(NC(=O)[C@H]2CCC(=O)N2C2CCN(Cc3ccc(Cl)c(C)c3)CC2)ccc1C [Example 165]	1.79
CNC(=O)c1cccc(N(C)C(=O)[C@H]2CCC(=O)N2C2CCN(Cc3ccc(Cl)c(C)c3)CC2)c1 [Example 166]	2.96
Cc1cc(NC(=O)[C@H]2CCC(=O)N2C2CCN(Cc3ccc(Cl)c(C)c3)CC2)cc(C(=O)N(C)C)c1 [Example 167]	0.78
Cc1nccc(-c2cccc(NC(=O)[C@H]3CCC(=O)N3C3CC4CCC(C3)N4Cc3ccc(Cl)c(C)c3)c2)n1 (stereo partly shown) [Example 86]	2.62

Could I get log10 Ki for every one of these entries?
1. CCN(CC)C(=O)c1cccc(NC(=O)[C@H]2CCC(=O)N2C2CCN(Cc3ccc(Cl)c(C)c3)CC2)c1 [Example 157]
2. COc1ccc2c(c1)CN(C(=O)[C@@H]1CCC(=O)N1C1CCN(Cc3ccc(Cl)c(C)c3)CC1)CC2 [Example 72]
3. Cc1cc(CN2CCC(N3C(=O)OC[C@H]3C(=O)Nc3cc(C4CC4)nn3C)CC2)ccc1Cl [Example 117]
4. CCC(C)N(C)C(=O)c1cccc(NC(=O)[C@H]2CCC(=O)N2C2CCN(Cc3ccc(Cl)c(C)c3)CC2)c1 (stereo partly shown) [Example 138]

Reply:
[1.18, 2.94, 1.23, 0.60]
